As shown below, each of these compounds has a reported inhibition at 1 µM value.
target: UniProtKB P53779; assay: Kinase panel profiling at 1 µmol/L (MSA or IMAP), percentage inhibition; type: biochemical; details: kinase JNK3; 1 µmol/L single concentration; read-out: %-inhibition at 1 µmol/L, JNK3
Sequence (P53779 whole entry): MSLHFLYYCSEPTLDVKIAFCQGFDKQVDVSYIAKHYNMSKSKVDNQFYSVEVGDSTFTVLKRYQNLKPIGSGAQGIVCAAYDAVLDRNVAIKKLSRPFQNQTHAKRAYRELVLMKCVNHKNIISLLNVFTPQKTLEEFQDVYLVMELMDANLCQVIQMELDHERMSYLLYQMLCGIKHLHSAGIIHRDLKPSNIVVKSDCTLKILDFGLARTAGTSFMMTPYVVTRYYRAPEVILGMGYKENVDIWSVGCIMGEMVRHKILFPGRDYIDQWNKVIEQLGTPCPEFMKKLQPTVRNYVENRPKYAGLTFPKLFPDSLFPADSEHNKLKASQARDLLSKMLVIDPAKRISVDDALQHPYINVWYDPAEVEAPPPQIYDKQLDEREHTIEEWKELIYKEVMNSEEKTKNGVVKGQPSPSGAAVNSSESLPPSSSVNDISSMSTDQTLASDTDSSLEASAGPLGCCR

SMILES_NOTATION | inhibition at 1 µM
Cc1nc(NC(=O)N2CCC[C@H]2C(N)=O)sc1-c1ccnc(C(C)(C)C(F)(F)F)c1 | -12%
CN1CCN(c2ccc(C(=O)Nc3n[nH]c4ccc(Cc5cc(F)cc(F)c5)cc34)c(NC3CCOCC3)c2)CC1 | -1.69%
CCn1c(=O)c(-c2cc(NC(=O)Nc3ccccc3)c(F)cc2Br)cc2cnc(NC)cc21 | 10%
COc1ccc(CN2C3CC2CN(c2ccc(-c4cc(OCC(C)(C)O)cn5ncc(C#N)c45)cn2)C3)cn1 | -8.47%

----------
molecular target: panel of 255 wild-type kinases (Homo sapiens); assay: Kinase panel profiling at 1 µmol/L (MSA or IMAP), percentage inhibition; assay type: biochemical; conditions: kinase YES; 1 µmol/L single concentration; read-out: %-inhibition at 1 µmol/L, YES

MOLECULE | SYSTEM | inhibition at 1 µM, %
COc1ccc(CN2C3CC2CN(c2ccc(-c4cc(OCC(C)(C)O)cn5ncc(C#N)c45)cn2)C3)cn1 [selpercatinib] | panel of 255 wild-type kinases (Homo sapiens) | 84
CO[C@]1(C(=O)N[C@@H](C)c2ccc(-n3cc(F)cn3)nc2)CC[C@H](c2nc(C)cc(Nc3cc(C)[nH]n3)n2)CC1 [pralsetinib] | panel of 255 wild-type kinases (Homo sapiens) | 95
CCN1C(=O)N(c2c(F)c(OC)cc(OC)c2F)Cc2cnc3[nH]c(CN4CCOCC4)cc3c21 [pemigatinib] | panel of 255 wild-type kinases (Homo sapiens) | 24
Cn1cc(-c2cc3c(N4CCN(c5ncc([C@@](C)(N)c6ccc(F)cc6)cn5)CC4)ncnn3c2)cn1 [avapritinib] | panel of 255 wild-type kinases (Homo sapiens) | 83
O=C(Nc1cnn2ccc(N3CCC[C@@H]3c3cc(F)ccc3F)nc12)N1CC[C@H](O)C1 [larotrectinib] | panel of 255 wild-type kinases (Homo sapiens) | -2.66
CCN1CCN(c2ccc(Nc3cc(N(C)C(=O)Nc4c(Cl)c(OC)cc(OC)c4Cl)ncn3)cc2)CC1 [infigratinib] | panel of 255 wild-type kinases (Homo sapiens) | 77
COC(=O)N[C@@H](C)CNc1nccc(-c2cn(C(C)C)nc2-c2cc(Cl)cc(NS(C)(=O)=O)c2F)n1 [encorafenib] | panel of 255 wild-type kinases (Homo sapiens) | 3.55

----------
As shown below, each of these compounds has a reported IC50 value.
biological target: FGFR3 (Homo sapiens, UniProt P22607); construct: purchased Carna Biosciences (only by web pointer); test: Biochemical kinase assay (MSA), IC50
Sequence (P22607 23-806): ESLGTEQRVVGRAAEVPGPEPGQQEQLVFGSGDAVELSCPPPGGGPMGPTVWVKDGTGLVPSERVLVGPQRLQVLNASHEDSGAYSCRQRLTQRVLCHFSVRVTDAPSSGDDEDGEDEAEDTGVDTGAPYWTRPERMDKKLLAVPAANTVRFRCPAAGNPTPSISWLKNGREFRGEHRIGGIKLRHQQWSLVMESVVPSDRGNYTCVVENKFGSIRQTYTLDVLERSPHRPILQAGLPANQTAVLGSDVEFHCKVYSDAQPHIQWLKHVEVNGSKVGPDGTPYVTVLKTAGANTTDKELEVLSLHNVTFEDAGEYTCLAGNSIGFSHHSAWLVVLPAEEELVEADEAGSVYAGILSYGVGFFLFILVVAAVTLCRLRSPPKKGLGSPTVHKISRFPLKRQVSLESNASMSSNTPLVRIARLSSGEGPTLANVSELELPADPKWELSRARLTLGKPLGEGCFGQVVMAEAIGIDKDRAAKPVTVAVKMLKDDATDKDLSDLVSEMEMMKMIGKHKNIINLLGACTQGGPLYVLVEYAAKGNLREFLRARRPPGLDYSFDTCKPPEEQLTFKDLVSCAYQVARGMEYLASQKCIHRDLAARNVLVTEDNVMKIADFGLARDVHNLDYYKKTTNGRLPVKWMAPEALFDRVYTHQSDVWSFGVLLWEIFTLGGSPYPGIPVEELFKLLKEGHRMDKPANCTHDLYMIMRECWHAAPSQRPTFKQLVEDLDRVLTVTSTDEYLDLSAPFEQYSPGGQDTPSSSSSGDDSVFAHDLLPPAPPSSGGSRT
REPORTED_PROPERTY: IC50 (µM)

SMILES_NOTATION | REPORTED_PROPERTY | READING
COc1ccc(CN2C3CC2CN(c2ccc(-c4cc(OCC(C)(C)O)cn5ncc(C#N)c45)cn2)C3)cn1 | IC50 | 0.05
CO[C@]1(C(=O)N[C@@H](C)c2ccc(-n3cc(F)cn3)nc2)CC[C@H](c2nc(C)cc(Nc3cc(C)[nH]n3)n2)CC1 | IC50 | 0.05

----------
As shown below, each of these compounds has a reported inhibition at 1 µM value.
molecular target: panel of 255 wild-type kinases (Homo sapiens); assay: Kinase panel profiling at 1 µmol/L (MSA or IMAP), percentage inhibition; format: biochemical; details: kinase PLK2; 1 µmol/L single concentration; read-out: %-inhibition at 1 µmol/L, PLK2

SMILES_NOTATION | SYSTEM | inhibition at 1 µM [%]
O=C(Nc1cnn2ccc(N3CCC[C@@H]3c3cc(F)ccc3F)nc12)N1CC[C@H](O)C1 | panel of 255 wild-type kinases (Homo sapiens) | 2.14
FC(F)(F)c1ccc(CNc2ccc(Cc3c[nH]c4ncc(Cl)cc34)cn2)cn1 | panel of 255 wild-type kinases (Homo sapiens) | 7
C[C@H]1Oc2cc(cnc2N)-c2c(nn(C)c2C#N)CN(C)C(=O)c2ccc(F)cc21 | panel of 255 wild-type kinases (Homo sapiens) | 10
CCN1CCN(c2ccc(Nc3cc(N(C)C(=O)Nc4c(Cl)c(OC)cc(OC)c4Cl)ncn3)cc2)CC1 | panel of 255 wild-type kinases (Homo sapiens) | 3.65
Cn1cnc2c(F)c(Nc3ccc(Br)cc3Cl)c(C(=O)NOCCO)cc21 | panel of 255 wild-type kinases (Homo sapiens) | 2.78
Cn1cc(-c2cc3c(N4CCN(c5ncc([C@@](C)(N)c6ccc(F)cc6)cn5)CC4)ncnn3c2)cn1 | panel of 255 wild-type kinases (Homo sapiens) | 7
C[C@H](Nc1ncnc2nc[nH]c12)c1cc2cccc(Cl)c2c(=O)n1-c1ccccc1 | panel of 255 wild-type kinases (Homo sapiens) | 13
COc1cc2ncnc(Nc3ccc(F)c(Cl)c3)c2cc1NC(=O)/C=C/CN1CCCCC1 | panel of 255 wild-type kinases (Homo sapiens) | 5

----------
Biological target: panel of 255 wild-type kinases (Homo sapiens, UniProt Q9NWZ3)
Sequence (Q9NWZ3 1-460): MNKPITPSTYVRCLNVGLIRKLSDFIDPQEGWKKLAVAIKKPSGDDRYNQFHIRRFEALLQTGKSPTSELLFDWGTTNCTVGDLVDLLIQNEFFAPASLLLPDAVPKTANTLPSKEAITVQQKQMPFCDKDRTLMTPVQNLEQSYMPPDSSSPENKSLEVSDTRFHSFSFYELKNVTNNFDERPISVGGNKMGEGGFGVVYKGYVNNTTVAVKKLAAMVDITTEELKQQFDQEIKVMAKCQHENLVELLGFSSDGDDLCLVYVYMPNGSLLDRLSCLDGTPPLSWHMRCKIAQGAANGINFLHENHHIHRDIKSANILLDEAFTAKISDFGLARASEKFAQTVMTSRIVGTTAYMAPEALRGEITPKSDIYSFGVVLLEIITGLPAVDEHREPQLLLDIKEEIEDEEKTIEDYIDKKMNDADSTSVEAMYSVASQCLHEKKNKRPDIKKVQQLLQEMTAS
Assay: Kinase panel profiling at 1 µmol/L (MSA or IMAP), percentage inhibition
Format: biochemical
Details: kinase IRAK4; 1 µmol/L single concentration; read-out: %-inhibition at 1 µmol/L, IRAK4

SMILES_NOTATION | inhibition at 1 µM, %
COc1ccc(CN2C3CC2CN(c2ccc(-c4cc(OCC(C)(C)O)cn5ncc(C#N)c45)cn2)C3)cn1 | 1.9
CO[C@]1(C(=O)N[C@@H](C)c2ccc(-n3cc(F)cn3)nc2)CC[C@H](c2nc(C)cc(Nc3cc(C)[nH]n3)n2)CC1 | -0.786
CCn1c(=O)c(-c2cc(NC(=O)Nc3ccccc3)c(F)cc2Br)cc2cnc(NC)cc21 | -3.46

----------
molecular target: panel of 255 wild-type kinases (Homo sapiens, UniProt P06493); assay: Kinase panel profiling at 1 µmol/L (MSA or IMAP), percentage inhibition; assay type: biochemical; details: CDC2/CycB1 kinase assay; 1 µmol/L single concentration; read-out: %-inhibition CDC2/CycB1
Sequence (P06493 whole entry): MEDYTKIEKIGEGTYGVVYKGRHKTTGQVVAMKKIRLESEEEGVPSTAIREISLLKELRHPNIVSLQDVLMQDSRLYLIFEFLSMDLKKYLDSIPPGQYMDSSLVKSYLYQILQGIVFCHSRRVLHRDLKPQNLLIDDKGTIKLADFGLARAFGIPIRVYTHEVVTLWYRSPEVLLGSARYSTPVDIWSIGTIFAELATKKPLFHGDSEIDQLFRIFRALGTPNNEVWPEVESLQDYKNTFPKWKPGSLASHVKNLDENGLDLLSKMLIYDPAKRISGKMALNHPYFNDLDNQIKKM
As shown below, each of these compounds has a reported inhibition at 1 µM value.

SMILES_NOTATION | inhibition at 1 µM [%]
FC(F)(F)c1ccc(CNc2ccc(Cc3c[nH]c4ncc(Cl)cc34)cn2)cn1 | 32
O=C(Nc1cnn2ccc(N3CCC[C@@H]3c3cc(F)ccc3F)nc12)N1CC[C@H](O)C1 | -7
CN1CCN(c2ccc(C(=O)Nc3n[nH]c4ccc(Cc5cc(F)cc(F)c5)cc34)c(NC3CCOCC3)c2)CC1 | 3.63
CCc1nc(C(N)=O)c(Nc2ccc(N3CCC(N4CCN(C)CC4)CC3)c(OC)c2)nc1NC1CCOCC1 | 26

----------
As shown below, each of these compounds has a reported inhibition at 1 µM value.
biological target: UniProt Q13188; assay: Kinase panel profiling at 1 µmol/L (MSA or IMAP), percentage inhibition; assay type: biochemical; conditions: MST2; 1 µmol/L single concentration; read-out: %-inhibition, MST2
Sequence (Q13188 whole entry): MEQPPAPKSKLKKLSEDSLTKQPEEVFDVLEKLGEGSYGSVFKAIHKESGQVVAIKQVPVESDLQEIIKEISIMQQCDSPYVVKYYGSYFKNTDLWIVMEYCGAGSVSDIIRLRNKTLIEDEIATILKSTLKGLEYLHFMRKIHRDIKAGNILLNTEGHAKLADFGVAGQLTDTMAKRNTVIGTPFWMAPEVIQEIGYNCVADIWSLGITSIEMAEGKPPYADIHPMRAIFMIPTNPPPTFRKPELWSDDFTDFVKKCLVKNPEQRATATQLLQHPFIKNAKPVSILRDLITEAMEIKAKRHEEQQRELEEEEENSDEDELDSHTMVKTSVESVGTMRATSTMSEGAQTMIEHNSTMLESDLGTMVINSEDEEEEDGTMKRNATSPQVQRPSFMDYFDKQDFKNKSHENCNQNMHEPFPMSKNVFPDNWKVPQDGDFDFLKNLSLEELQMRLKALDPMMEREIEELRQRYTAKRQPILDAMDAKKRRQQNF

SMILES_NOTATION | UNIT_STRING | inhibition at 1 µM
O=C(Nc1cnn2ccc(N3CCC[C@@H]3c3cc(F)ccc3F)nc12)N1CC[C@H](O)C1 | % | 0.182
CO[C@]1(C(=O)N[C@@H](C)c2ccc(-n3cc(F)cn3)nc2)CC[C@H](c2nc(C)cc(Nc3cc(C)[nH]n3)n2)CC1 | % | 5.55
Cn1cc(-c2cc3c(N4CCN(c5ncc([C@@](C)(N)c6ccc(F)cc6)cn5)CC4)ncnn3c2)cn1 | % | 0.434
C=CC(=O)N1CCC([C@@H]2CCNc3c(C(N)=O)c(-c4ccc(Oc5ccccc5)cc4)nn32)CC1 | % | 1.56
C[C@H]1Oc2cc(cnc2N)-c2c(nn(C)c2C#N)CN(C)C(=O)c2ccc(F)cc21 | % | 8
CCc1nc(C(N)=O)c(Nc2ccc(N3CCC(N4CCN(C)CC4)CC3)c(OC)c2)nc1NC1CCOCC1 | % | 14
COC(=O)N[C@@H](C)CNc1nccc(-c2cn(C(C)C)nc2-c2cc(Cl)cc(NS(C)(=O)=O)c2F)n1 | % | 3
CCN1CCN(c2ccc(Nc3cc(N(C)C(=O)Nc4c(Cl)c(OC)cc(OC)c4Cl)ncn3)cc2)CC1 | % | -2.14
CN1CCN(c2ccc(C(=O)Nc3n[nH]c4ccc(Cc5cc(F)cc(F)c5)cc34)c(NC3CCOCC3)c2)CC1 | % | 35
Cn1cnc2c(F)c(Nc3ccc(Br)cc3F)c(C(=O)NOCCO)cc21 | % | -1.64
Cn1cnc2c(F)c(Nc3ccc(Br)cc3Cl)c(C(=O)NOCCO)cc21 | % | -2.14
Cc1cc(Nc2ncnc3ccc(NC4=NC(C)(C)CO4)cc23)ccc1Oc1ccn2ncnc2c1 | % | -1.17
CCN1C(=O)N(c2c(F)c(OC)cc(OC)c2F)Cc2cnc3[nH]c(CN4CCOCC4)cc3c21 | % | 7
Cc1nc(NC(=O)N2CCC[C@H]2C(N)=O)sc1-c1ccnc(C(C)(C)C(F)(F)F)c1 | % | 1.52
FC(F)(F)c1ccc(CNc2ccc(Cc3c[nH]c4ncc(Cl)cc34)cn2)cn1 | % | 10
